- Tested on: NOMO1
- RUN DESCRIPTION: cell viability relative to DMSO control; higher = less cytotoxic
- EXPERIMENTAL PARAMETERS: RPMI 5 mM glucose + 10% FBS; 48 h; 0.0211 µM
Listing of entries alongside the reported cell viability.
Lab book: enter the figure in %, no units written.

1. COc1cc2ncnc(Nc3ccc(F)c(Cl)c3)c2cc1NC(=O)/C=C/CN1CCCCC1 = 86.3

Indicate its recorded cell viability; the compound in question is `C=C[C@H]1CN2CC[C@H]1C[C@H]2[C@H](O)c1ccnc2ccc(OC)cc12`
87.8

Indicate its recorded cell viability; the compound in question is C[C@]12CC[C@@H]3c4ccc(O)cc4C[C@@H](CCCCCCCCC[S+]([O-])CCCC(F)(F)C(F)(F)F)[C@H]3[C@@H]1CC[C@@H]2O (stereo partly drawn)
131

Indicate its recorded cell viability; the compound in question is `NC(=O)c1ccc(I)c([N+](=O)[O-])c1`
131

Indicate its recorded cell viability; the compound in question is `O=C(Nc1cc2cc[nH]c2cn1)c1ccccc1`
110

Indicate its recorded cell viability; the compound in question is `COc1ccc(-c2ccc3c(N4CCOC[C@@H]4C)nc(N4CCOC[C@@H]4C)nc3n2)cc1CO`
95.6

Indicate its recorded cell viability; the compound in question is `CC(C)C1=C(O)C=C(O)C(=C1)C/2=N/NC(=O)N2C3=CC4=C(C=C3)[N](C)C=C4`
112

* * *

- Test system: SEM cells
- RUN DESCRIPTION: cell viability relative to DMSO control; higher = less cytotoxic
- EXPERIMENTAL PARAMETERS: RPMI 5 mM glucose + 10% dialyzed FBS; 48 h; 0.0632 µM
Listing of entries alongside the reported cell viability.
Form field: result (number plus unit)

Example results:
1. Cc1cc(C(C)(C)C)c(O)c(C)c1CC1=NCCN1 = 93.3%
2. C[S+]([O-])(=O)C1=CC=C(C=C1)C/2=C(/C(=O)OC2)C3=CC=CC=C3 = 112%

Indicate its recorded cell viability; the molecule in question is `S=P(N1CC1)(N1CC1)N1CC1`
105%

Indicate its recorded cell viability; the molecule in question is `CC(C)CC(=O)N[C@H](C(=O)N[C@H](C(=O)N[C@@H](CC(C)C)[C@@H](O)CC(=O)N[C@@H](C)C(=O)N[C@@H](CC(C)C)[C@@H](O)CC(=O)O)C(C)C)C(C)C`
73.1%

Indicate its recorded cell viability; the molecule in question is COc1ccc(C2CNC(=O)C2)cc1OC1CCCC1 (stereo unspecified)
95%

Indicate its recorded cell viability; the molecule in question is `CC(C)(C)c1[nH]cnc1/C=c1\[nH]c(=O)/c(=C/c2ccccc2)[nH]c1=O`
23.4%

Indicate its recorded cell viability; the molecule in question is `COCCCN1CCC(NC(=O)c2cc(Cl)c(N)c3c2OCC3)CC1`
130%

* * *

Listing of entries alongside the reported cell viability.
- Tested on: P12-Ichikawa
- RUN DESCRIPTION: cell viability relative to DMSO control; higher = less cytotoxic
- EXPERIMENTAL PARAMETERS: HPLM + 10% dialyzed FBS; 48 h; 0.569 µM
Lab book: enter the figure in %, no units written.

Example results:
1. O=C(O[C@H]1C[C@H]2CC[C@@H](C1)[N+]21CCCC1)C(O)(c1ccccc1)c1ccccc1.[Cl-] = 110
2. Nc1nc(N)c2nc(CNc3ccc(C(=O)NC(CCC(=O)O)C(=O)O)cc3)cnc2n1 (stereo not drawn) = 31
3. S=P(N1CC1)(N1CC1)N1CC1 = 108

State cell viability on P12-Ichikawa. Entry: `CCC[C@H]1C[C@H](C(=O)N[C@@H]([C@@H]2O[C@@H](SC)[C@@H](O)[C@@H](O)[C@H]2O)[C@H](C)Cl)N(C)C1`
123

State cell viability on P12-Ichikawa. Entry: CNC1CCC(N(Cc2cccc(-c3ccncc3)c2)C(=O)c2sc3c(F)ccc(F)c3c2Cl)CC1 (stereo not drawn)
104
